The following are reported ΔTm results, target or system Serine/threonine-protein kinase 26 (Homo sapiens) (UniProt Q9P289).

querySmiles	quantityUnit	ΔTm
CC(C)(C)c1cc(C=C2C(=O)C=CC2=O)cc(C(C)(C)C)c1O	°C	0.5
COc1cccc(-c2cc(=O)c3ccccc3o2)c1N	°C	-0.1
O=C1Nc2cc(Br)ccc2/C1=C1/Nc2ccccc2/C1=N\O	°C	3.7
Oc1cc(O)cc(/C=C/c2ccc(O)c(O)c2)c1	°C	0.9
C/C(O)=C(\C#N)C(=O)Nc1cc(Br)ccc1Br	°C	0.2
Oc1ccc(-c2nc(-c3ccc(F)cc3)c(-c3ccncc3)[nH]2)cc1	°C	0
O=C1NC(=O)c2c1c1c3ccccc3n3c1c1c2c2ccccc2n1C1CCC3O1	°C	1.5
CCN(CC)CCNC(=O)c1c(C)[nH]c(/C=C2\C(=O)Nc3ccc(F)cc32)c1C	°C	4.7
Cc1nc(N)sc1-c1ccnc(Nc2cccc([N+](=O)[O-])c2)n1	°C	0.4
NCCNS(=O)(=O)c1cccc2c(Cl)cccc12	°C	0
N#CC(C#N)=Cc1ccc(O)c(O)c1	°C	0.3
c1ccc(-c2n[nH]c3c2oc2ccccc23)cc1	°C	0.6
CC(C)c1nn(-c2c(Cl)cccc2Cl)c2nc(Cc3ccc(OCCO)cc3)[nH]c(=O)c12	°C	-0.3
CN(C)c1ncnc2nc[nH]c12	°C	0.1
CN(c1cccnc1)c1cc2c(Nc3ccc(F)c(Cl)c3)c(C#N)cnc2cn1	°C	1.3
COC1=C2C[C@@H](C)C[C@H](OC)[C@H](O)[C@@H](C)/C=C(\C)[C@H](OC(N)=O)[C@@H](OC)/C=C\C=C(/C)C(=O)NC(=CC1=O)C2=O	°C	-0.4
O=C1Nc2ccc(I)cc2/C1=C1/Nc2ccccc2/C1=N\O	°C	4.5
COc1cc(OC)c(/C=C2\C(=O)Nc3ccccc32)c(OC)c1	°C	0
CN(C)CCCn1cc(C2=C(c3c[nH]c4ccccc34)C(=O)NC2=O)c2ccccc21	°C	3.1
O=C1C=C2C(=Nc3c2c2c(c4c3=NC3=C4CCC=C3)C=NC=2)CC1	°C	4.8
C=CNC#N	°C	-1.4
CC(C)(C)n1nc(-c2ccc(Cl)cc2)c2c(N)ncnc21	°C	-0.5

----------
# studyTarget: Calcium/calmodulin-dependent protein kinase type II subunit alpha (Homo sapiens) (UniProt Q9UQM7)
# Sequence (Q9UQM7 whole entry): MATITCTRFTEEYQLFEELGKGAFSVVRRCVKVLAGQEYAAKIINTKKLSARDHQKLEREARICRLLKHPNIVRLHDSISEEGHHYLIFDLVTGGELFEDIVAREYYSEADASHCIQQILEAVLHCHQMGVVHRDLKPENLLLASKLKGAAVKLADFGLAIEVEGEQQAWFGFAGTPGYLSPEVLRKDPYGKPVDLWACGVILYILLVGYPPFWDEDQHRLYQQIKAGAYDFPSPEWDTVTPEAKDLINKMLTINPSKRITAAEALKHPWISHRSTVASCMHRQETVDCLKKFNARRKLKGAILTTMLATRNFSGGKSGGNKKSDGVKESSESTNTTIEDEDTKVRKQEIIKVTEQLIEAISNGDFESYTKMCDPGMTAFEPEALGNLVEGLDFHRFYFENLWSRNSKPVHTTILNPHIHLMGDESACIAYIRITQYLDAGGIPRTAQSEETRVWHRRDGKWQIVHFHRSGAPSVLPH
Below: a set of entries, each annotated with reported ΔTm.

compound	ΔTm / °C
CSc1nc(-c2ccc(F)cc2)c(-c2ccnc(NC(C)c3ccccc3)c2)[nH]1 (racemic)	0.6
Cc1ccc(NC2=CC(=O)c3sc(C)nc3C2=O)cc1	-0.7
O=C1Nc2ccc(S(=O)(=O)O)cc2/C1=C1/Nc2ccccc2/C1=N\O	4.8
C[C@@H]1C[C@H]2O[C@@H]2/C=C\C=C\C(=O)Cc2c(Cl)c(O)cc(O)c2C(=O)O1 [RADICICOL]	0
Nc1cc2ncnc(Nc3cccc(Br)c3)c2cc1N	0
O=c1c2ccccc2[nH]c(=S)n1CCN1CCC(=C(c2ccc(F)cc2)c2ccc(F)cc2)CC1 [DIACYLGLYCEROL KINASE INHIBITOR II]	-0.6
O=C1NC(=O)c2c1c1c3ccccc3n3c1c1c2c2ccccc2n1C1CCC3O1	-0.4
NCCNS(=O)(=O)c1cccc2c(Cl)cccc12	0.7
N#CC(C#N)=Cc1ccc(O)c(O)c1 [TYRPHOSTIN 23]	0.2
O=S(=O)(c1cccc2c(Cl)cccc12)N1CCCNCC1	0.5
N#C/C(=C\c1ccc(O)c(O)c1)C(=O)Nc1ccccc1	0.3
CC(C)(C)n1nc(-c2cccc3ccccc23)c2c(N)ncnc21	0.3
Cc1cc(Nc2nc(-c3ccccc3)nc3ccccc23)n[nH]1	1.4
C[C@@H](N)[C@H]1CC[C@H](C(=O)Nc2ccncc2)CC1	-0.3
O=Nc1c(-c2c(O)[nH]c3ccccc23)[nH]c2ccccc12	3.9
N#C/C(=C(/N)Sc1ccc(N)cc1)c1ccccc1C(F)(F)F	0.6
C#Cc1cccc(Nc2ncnc3cc(OCCOC)c(OCCOC)cc23)c1	0
O=C1C(Cl)=C(N2C(=O)CCC2=O)C(=O)c2ccccc21	3.4
O=C1Nc2ccccc2/C1=C/c1cnc[nH]1	0.7
COc1cc(OC)c(/C=C2\C(=O)Nc3ccccc32)c(OC)c1	-0.1
O=c1cc(N2CCOCC2)oc2c1ccc1ccccc12	0.3
Oc1ccc(-c2nc(-c3ccc(F)cc3)c(-c3ccncc3)[nH]2)cc1	0.4
CN(C)c1ccc(CC2C(=O)Nc3ccccc32)cc1 (stereo not drawn)	-0.3
OC[C@H]1O[C@@H](n2cnc3cc(Cl)c(Cl)cc32)[C@H](O)[C@@H]1O	0.8
O=C1NC(=O)C(c2cn(CCCn3ccnc3)c3ccccc23)=C1Nc1ccccc1	1.7
Oc1cc(O)cc(/C=C/c2ccc(O)c(O)c2)c1 [PICEATANNOL]	0.8
CCOC(=O)c1cnc2oc3ccc(O)cc3c2c1-c1ccccc1	0.7
O=c1cc(N2CCOCC2)oc2c(-c3ccccc3)cccc12	0.5
Cn1cnc2c(NCc3ccccc3)nc(NCCO)nc21 [OLOMOUCINE]	-0.3
N#CCCc1ccc2c(c1)-c1[nH]c3ccc([N+](=O)[O-])cc3c1CC(=O)N2 [ALSTERPAULLONE 2]	0.4
Cc1cc2ncc(-c3ccccc3)nc2cc1C	1
COc1cc2ncnc(Nc3cccc(O)c3)c2cc1OC	0
O=C(O)/C=C/c1cc(CO)ccc1CO	-0.1
CN(C)c1ncnc2nc[nH]c12 [DIMETHYLADENINE]	1.7
CN(C)CC1CCn2c(c(C3=C(c4c[nH]c5ccccc45)C(=O)NC3=O)c3ccccc32)C1 (stereo not drawn)	1.6
Clc1ccc(Nc2nnc(Cc3ccncc3)c3ccccc23)cc1	0.4
O=C1Nc2cc(Br)ccc2/C1=C1/Nc2ccccc2/C1=N\O	0.1
COc1ccc(CNc2nc(N(CCO)CCO)nc3c2ncn3C(C)C)cc1	0
O=S(=O)(NCCNC/C=C/c1ccc(Br)cc1)c1cccc2cnccc12	0.5
C[S+]([O-])c1ccc(CSc2nc(-c3ccc(F)cc3)c(-c3ccncc3)[nH]2)cc1 (stereo not drawn)	-0.1
CCOc1ccc(/C=C2/SC(=O)N(CCN)C2=O)cc1 [HIAZOLIDINEDIONE1]	-0.2
O=c1c(O)c(-c2ccc(O)c(O)c2)oc2cc(O)cc(O)c12 [QUERCETIN]	4.1
O=C(Nc1cccc(Nc2nccc(Nc3cccc(C(F)(F)F)c3)n2)c1)C1CC1 [ANILINOPYRIMIDINE1]	0.3
